Entries and their pKd
Biological target: T1, human recombinant VCAM-1 (human, UniProt P19320 25-698)
T1 construct: Bought recombinant protein (RnD Systems), immobilised on a CM5 chip for SPR; also called hVCAM-1; human VCAM-1
T1 sequence (looked up): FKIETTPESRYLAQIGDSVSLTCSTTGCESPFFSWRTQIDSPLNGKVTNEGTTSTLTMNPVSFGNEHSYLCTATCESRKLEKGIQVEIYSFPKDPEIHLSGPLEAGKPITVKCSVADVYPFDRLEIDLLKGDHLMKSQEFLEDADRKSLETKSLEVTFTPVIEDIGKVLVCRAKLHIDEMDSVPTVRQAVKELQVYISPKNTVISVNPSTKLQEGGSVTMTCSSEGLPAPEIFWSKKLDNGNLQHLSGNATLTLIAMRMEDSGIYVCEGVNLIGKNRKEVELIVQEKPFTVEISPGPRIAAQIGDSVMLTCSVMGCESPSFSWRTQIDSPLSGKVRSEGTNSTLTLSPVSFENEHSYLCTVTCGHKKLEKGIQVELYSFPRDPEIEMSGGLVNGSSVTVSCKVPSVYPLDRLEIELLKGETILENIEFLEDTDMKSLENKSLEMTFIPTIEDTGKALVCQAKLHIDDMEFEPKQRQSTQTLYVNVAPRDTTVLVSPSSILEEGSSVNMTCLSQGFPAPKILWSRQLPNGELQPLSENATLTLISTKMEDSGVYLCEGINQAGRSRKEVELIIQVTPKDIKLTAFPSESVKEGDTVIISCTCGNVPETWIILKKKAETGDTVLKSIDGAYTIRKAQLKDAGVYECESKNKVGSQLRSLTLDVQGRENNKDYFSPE
Assay: SPR, Biacore 3000, recombinant hVCAM-1 immobilised on CM5 chip, 1:1 model
Friendly reminder that pKd comes from taking -log10 of the concentration in mol/L.

INSERT INTO results (binder, readout_kind, val) VALUES
  ('cAbVCAM1-5 (VHH, Dromedary nanobody produced with a hexahistidine tag in E. coli; also called anti-VCAM-1 nanobody; not shown: hexahistidine tag) VHH: QVQLQESGGGSVQTGGSLRLSCAASGYTNSIMYMAWFRQAPGKKREGVAAIRFPDDSAYYAGSVKGRFTISHDNAKNTVYLQMNNLNPEDTAMYYCAARSSPYSFAWNDPSNYNYWGQGTQVTVSS', 'pKd', 8.19),
  ('cAbVCAM1-3 (VHH, Dromedary nanobody produced with a hexahistidine tag in E. coli; also called anti-VCAM-1 nanobody; not shown: hexahistidine tag) VHH: QVQLQESGGGSVQAGGSLRLSCTASGFTYSSYYMSWVRQAPGKGLEWVSGINVDGSNTYYADSVKGRFTISRDNAKNTLYLQMNSLKSEDTALYYCATGSGRDSYDCYSGSWCPKGQGTQVTVSS', 'pKd', 8.04),
  ('cAbVCAM1-8 (VHH, Dromedary nanobody produced with a hexahistidine tag in E. coli; also called anti-VCAM-1 nanobody; not shown: hexahistidine tag) VHH: QVQLQESGGGLVQPGGSLRLSCAASGFTFSNYYMTWVRRAPGKGLEWVSRINSDGSTLYLPSVKGRFTISRDNAKNTLYLQMNSLKSEDTGWYYCVEGKSSVRGQGTQVTVSS', 'pKd', 8.85);

Please look at the following binder next.
Please give the measured pKd for this binder: cAbVCAM1-9 (VHH, Dromedary nanobody produced with a hexahistidine tag in E. coli; also called anti-VCAM-1 nanobody; not shown: hexahistidine tag) VHH: QVQLQESGGGLVQPGGSLRLSCAASGFTFSSYYMSWVRQAPGKGLEWVSGINVDGSNTYYADSVKGRFTISRDNAKNTLYLQMNSLKSEDTALYYCATGSGRDSYDCYSGSWCPKGQGTQVTVSS
8.28
